# Test system: 621-102 (TSC2-deficient)
# assayComment: relative viability vs DMSO; higher = less cytotoxic
# experimentalParameters: 0.01 µM; serum: 10% FBS; 72 h
Counter-ions that a name gives are not always drawn.
We begin with a simple list: items and their reported relative viability.
Please give a number only; it is taken to be in %.

Consider the following illustrative entries.
C=CCNC1=C2C[C@@H](C)C[C@H](OC)[C@H](O)[C@@H](C)/C=C(\C)[C@H](OC(N)=O)[C@@H](OC)/C=C\C=C(/C)C(=O)NC(=CC1=O)C2=O: 72.2
Cc1cc(NS(=O)(=O)c2ccc(N)cc2)no1: 105
CN1[C@@H]2C[C@@H](OC(=O)[C@H](CO)c3ccccc3)C[C@H]1[C@@H]1O[C@@H]12 [Scopolamine hydrobromide]: 120
CN(C)c1ccc(-c2nc3ncc(Cl)c(N4CCN(CC(=O)Nc5nccs5)CC4)c3[nH]2)cc1: 102
CCCCNc1ccc(C(=O)OCCN(C)C)cc1 [Tetracaine HCl]: 100

Reported relative viability ( CN(C)Cc1cccc(N=C(c2ccccc2)c2c(O)[nH]c3cc(C(=O)N(C)C)ccc23)c1 ) = 102

Measured relative viability, COc1cc2ncnc(Nc3cccc(Br)c3)c2cc1OC : 115

relative viability recorded for this compound, COc1cc(Nc2ncc(F)c(Nc3ccc4c(n3)NC(=O)C(C)(C)O4)n2)cc(OC)c1OC [R406 (free base)] , is 105

Given item CO[C@H]1C[C@@H]2CC[C@@H](C)[C@@](O)(O2)C(=O)C(=O)N2CCCC[C@H]2C(=O)O[C@H]([C@H](C)C[C@@H]2CC[C@@H](OP(C)(C)=O)[C@H](OC)C2)CC(=O)[C@H](C)/C=C(\C)[C@@H](O)[C@@H](OC)C(=O)[C@H](C)C[C@H](C)/C=C/C=C/C=C/1C , the value recorded as its relative viability is 56.6

The measured relative viability associated with Cc1cn(-c2cc(NC(=O)c3ccc(C)c(Nc4nccc(-c5cccnc5)n4)c3)cc(C(F)(F)F)c2)cn1 reads 70.7

Per the records, this compound ( CNC(C)C1CCC(N)C(OC2C(N)CC(N)C(OC3OCC(C)(O)C(NC)C3O)C2O)O1 (stereo not given) [Gentamycin sulfate (Gentacycol)] ) has relative viability equal to 113

// sample CCN1CCN(C(=O)Cc2ccc(Nc3ncc(F)c(Nc4ccc(C(=O)Nc5ccccc5Cl)cc4)n3)cc2)CC1 , its relative viability was 114

The compound identified as CCOc1ccccc1OCCN[C@H](C)Cc1ccc(OC)c(S(N)(=O)=O)c1 [Tamsulosin HCl] registered its relative viability at 99.5

---

relative viability values for the compounds below.
# Test system: 621-102 (TSC2-deficient);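 further: immortalized renal angiomyolipoma cells stably carrying empty vector or TSC2, dosed in 384-well plates in DMEM, viability normalized to vehicle-treated wells within each plate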
# assayComment: relative viability vs DMSO; higher = less cytotoxic
# experimentalParameters: 0.0001 µM; serum: 10% FBS; 72 h
I only need the number, in %, no unit after it.

O=c1cc(N2CCOCC2)oc2c(-c3ccccc3)cccc12: 95.6
Clc1ccc(C2(c3ccc(-c4cn[nH]c4)cc3)CCNCC2)cc1: 98.8
CC(C)[C@H](O)C(=O)N[C@@H](C)C(=O)N[C@@H]1C(=O)N(C)CCc2ccccc21: 117
COC(=O)c1ccc2c(C(=Nc3ccc(N(C)C(=O)CN4CCN(C)CC4)cc3)c3ccccc3)c(O)[nH]c2c1: 101
O=c1cc(-c2cccc3c2Sc2ccccc2S3)oc(N2CCOCC2)c1: 101

Field relative viability (621-102 (TSC2-deficient)), entry COC(=O)N1CCN(Cc2cccc(NC(=O)Nc3ccc(C)nc3)c2F)CC1 : 93.8

Bench note, 621-102 (TSC2-deficient): CN(C)CC/C=C1/c2ccccc2Sc2ccc(Cl)cc21 , relative viability reads 93.1

The value of relative viability recorded for N#Cc1c(O)c2c(-c3ccc(-c4ccccc4O)cc3)csc2[nH]c1=O when tested on 621-102 (TSC2-deficient) reads 87.4

Observed relative viability on 621-102 (TSC2-deficient), entry COCC(=O)NC/C=C/c1ccc2ncnc(Nc3ccc(Oc4ccc(C)nc4)c(C)c3)c2c1 , equals 100

Bench note, 621-102 (TSC2-deficient): COC(=O)Nc1ccc(-c2nc(N3CCOCC3)c3cnn(C4CCN(Cc5cccnc5)CC4)c3n2)cc1 , relative viability reads 97.3
